Reference for the values: the RNAGym collection of RNA variant scans (doi:10.1002/anie.201605470)

B1: Osa-1-4 twister ribozyme (parent)
chain: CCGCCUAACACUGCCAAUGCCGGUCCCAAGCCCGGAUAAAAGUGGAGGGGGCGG

Variants of: B1
Experiment: self-cleavage, relative activity (ratio to wild type); higher = more cleavage; co-transcriptional
I'd appreciate it if you could supply self-cleavage values for the items below.
Give bare numbers.

macromolecule_sequence	reported_result
CCGCCUAACACUCCCAAUGCCGGUCCCAAGGCCGGAUAAAAGUGGAGGGGGCGG [C31G G13C]	0.06
CCGCCUAACACUGCCAAUGCCGGUCCCAAGCCCGGAUAAAAGUGGACGGGGAGG [C52A G47C]	0.1
CCGCCUAACACUGCCAAUGCCCGUCCCAAGCCCGGAUAAAUGUGGAGGGGGCGG [A41U G22C]	0.1

Dear colleague, could you send me self-cleavage for each of the items below? Thanks.
1. CCGCCUAACACUGCCAAUGCCGGUCCAAAGCCCGGAUAAAAGUGGAGGGGGCUG [C27A G53U]
2. CCGCCUAACACUGCCAAUGCCGAUCCCAAGGCCGGAUAAAAGUGGAGGGGGCGG [C31G G23A]

Output:
1: 0.06; 2: 0.06

Lab note: CCGCCUUACACUGCCAAUGCCGGUCCCAAGCCCGGAUAAAAGUGGAGGGGGUGG [A7U C52U] gave self-cleavage of 0.1
